# TESTED_SYSTEM: T1, UNK ZnF1-3 (human, UniProt Q9C0B0 31-174)
# T1 sequence: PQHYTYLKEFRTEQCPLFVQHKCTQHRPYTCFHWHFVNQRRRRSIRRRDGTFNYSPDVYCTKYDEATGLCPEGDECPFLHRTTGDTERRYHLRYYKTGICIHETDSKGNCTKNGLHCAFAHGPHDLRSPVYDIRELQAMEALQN
# PROCEDURE_DETAILS: nsRBNS (natural sequence RNA bind-n-seq); RBNS binding buffer (assumed for nsRBNS): 25 mM Tris pH 7.5, 150 mM KCl, 3 mM MgCl2, 0.01% Triton X-100, 500 ug/ml BSA, 20 U/ml SUPERase-In, 4 C; UNK is unkempt and MSI1 is Musashi-1; names of the RNAs are library labels; protein concentration not given here; high values mean tight binding
The full ranking holds about 24,000 sequences; the median of “enrichment r” is about 0.99, and the highest 2% start at about 3.7. Shown is part of a subset that was picked to be rich in the highest values.
MEASURED_PARAMETER: binding signal
Express your answer as a number followed by its unit.

Would you kindly share the measured binding signal for 53612100_53613521_5214_CDS_ENSG00000086758_ENST00000262854|human|control|control (ssRNA) RNA: GGGAGUUCUACAGUCCGACGAUCAGAGCGAUCAUCAAACCAGCGCCAGUUGUUGCUGUUGGAUUGCAGGUACUUAGUCAUCUGGGCUCUCCUUUUUGAGGAGAUGGCUGUCUUUUCAUAGAAAUCAAUCAGGAGCAACACUGGCAACAGAGGAUUGAGCAUCA ?
1.05 enrichment R

Would you kindly share the measured binding signal for chr16:49913422:49913423:+_ENSMUSG00000055447_ENSMUST00000084838|mus_mus|motif|central (ssRNA) RNA: GGGAGUUCUACAGUCCGACGAUCGCUCUCUACGAUUGUAUAAGUGGAGGGCAGACAAUAAAUAAAAAUUGAAUAGAGGCGGUGACAGCAGAAAUCGGGAUUUGGGAGAGAAAAGCGCAUUGUGGGACAAAACAGAUGCGUGGUCAACAGAGGAUUGAGCAUCA ?
3.75 enrichment R

Would you kindly share the measured binding signal for chr1:46159212:46159213:+_ENSG00000159596_ENST00000372025|hu_mus|hu_hu_hu_mus_True|8_68 (ssRNA) RNA: GGGAGUUCUACAGUCCGACGAUCUCUGAUCCCUCCCAAGAAAGCUAGGAAACCGGCUCCAUAAGCCAUCUGAGUAAAAGCUAGGACGGGGAUAUAAGACUUUGUUAUUACCAUGAGAAGUGGGGGAGCAACGAAGGGGAUUAACAACAGAGGAUUGAGCAUCA ?
1.56 enrichment R
